- System: 677734-321-R-J1-PDC complex spheroid viability;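 also: spheroids exposed to compounds for one week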
- Test: Anticancer human tumor 677734-321-R-J1-PDC patient-derived soft tissue sarcoma cell line growth inhibition [POLQ]
- Condition Parameters: second compound 0.0316 µM; first compound 3.16 µM; hits give low values
Note to self: use condition met only for viability, T/C readings below 80%; a reading exactly at 80% still gets condition not met.

Field: example entries. Status: answers known.
Nc1ccn(C2OC(CO)C(O)C2(F)F)c(=O)n1 (stereo unspecified) + Nc1ccc(C#CCN(C(=O)Cc2ncc(C(F)(F)F)cc2C(F)(F)F)c2ccc(F)cc2)nn1 | condition met
COc1cc(C2c3cc4c(cc3C(OC3OC5COC(C)OC5C(O)C3O)C3COC(=O)C23)OCO4)cc(OC)c1O (stereo unspecified) + COC1C(OC(N)=O)C(O)C(Oc2ccc3c(O)c(NC(=O)c4ccc(O)c(CC=C(C)C)c4)c(=O)oc3c2C)OC1(C)C | condition met
CNCc1ccc(-c2[nH]c3cc(F)cc4c3c2CCNC4=O)cc1 + COC1C(OC(N)=O)C(O)C(Oc2ccc3c(O)c(NC(=O)c4ccc(O)c(CC=C(C)C)c4)c(=O)oc3c2C)OC1(C)C | condition not met
C#Cc1c(F)ccc2cc(O)cc(-c3ncc4c(N5CC6CCC(C5)N6)nc(OCC56CCCN5CC(F)C6)nc4c3F)c12 (stereo unspecified) + Nc1ccc(C#CCN(C(=O)Cc2ncc(C(F)(F)F)cc2C(F)(F)F)c2ccc(F)cc2)nn1 | condition not met
COc1cccc2c1C(=O)c1c(O)c3c(c(O)c1C2=O)CC(O)(C(=O)CO)CC3OC1CC(N)C(O)C(C)O1 (stereo unspecified) + Nc1ccc(C#CCN(C(=O)Cc2ncc(C(F)(F)F)cc2C(F)(F)F)c2ccc(F)cc2)nn1 | condition met

Consider the additional molecule presented here.
Find out if reported viability, T/C for CC1COCCN1c1cc(-c2ccnn2C)c2ccnc(-c3ccn[nH]3)c2n1 (stereo unspecified) + Cc1cccc(N(C)C(=O)C2C(O)CCN2c2nc(C)cc(C(F)(F)F)c2C#N)c1 is less than 80% condition met
